Entries annotated with measured Kd
- Test System: Recombinant protein Claudin 18.2
- Sequence (chain, as listed by the source limits assumed, form in doubt): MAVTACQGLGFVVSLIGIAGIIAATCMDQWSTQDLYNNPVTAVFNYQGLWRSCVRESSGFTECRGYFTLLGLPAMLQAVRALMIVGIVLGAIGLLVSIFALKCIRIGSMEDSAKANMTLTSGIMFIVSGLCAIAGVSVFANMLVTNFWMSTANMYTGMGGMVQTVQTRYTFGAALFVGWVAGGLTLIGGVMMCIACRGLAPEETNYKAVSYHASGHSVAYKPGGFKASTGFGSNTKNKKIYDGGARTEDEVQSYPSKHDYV
- Experiment Description: ELISA-based assay on Claudin 18.2, y axis RLU; Kd table under the graph, no unit in the table, unit from the x axis log[antibody] nM
Numbers only here, please. The scale is nM.

See these solved cases before continuing.
Binder	Parameter Measured	Measured Value
Anti-CLDN 18.2-5C9o (humanized antibody h5C9o) (antibody, V domains shown) VH: EVQLVESGGGLVQPGGSLRLSCAVSGYTFSMNWVRQAPGKGLEWVAWINMYTGEPTYADDFKGRFTISRDDSKNTLYLQMNSLRAEDTAVYYCARLYNGNSLDYWGQGTLVTVSS VL: DIQMTQSPSSLSASVGDRVTITCKSSQSLLNSGNQKSYLTWYQQKPGKAPKLLIYWASTLESGVPSRFSGSGSGTDYTLTISSLQPEDFATYYCQNAYSFPFTFGQGTKVEIK	Kd	0.14
humanized anti-Claudin 18.2 antibody h5C9oao (antibody, human IgG1, kappa, V domains shown) VH: EVQLVESGGGLVQPGGSLRLSCAVSGYTFSMNWVRQAPGKGLEWVAWINMYTGEPTYADDFKGRFTISRDDSKNTLYLQMNSLRAEDTAVYYCARLARGNSMDYWGQGTLVTVSS VL: DIQMTQSPSSLSASVGDRVTITCKSSQSLLNSGNQKSYLTWYQQKPGKAPKLLIYWASTLESGVPSRFSGSGSGTDYTLTISSLQPEDFATYYCQNAYFFPFTFGQGTKVEIKR	Kd	0.102

Let's switch to this binder now.
Ask: Give Kd for the following binder: Anti-CLDN 18.2-5C9oae (humanized antibody h5C9oae) (antibody, human IgG1, V domains shown) VH: EVQLVESGGGLVQPGGSLRLSCAVSGYTFSMNWVRQAPGKGLEWVAWINMYTGEPTYADDFKGRFTISRDDSKNTLYLQMNSLRAEDTAVYYCARLYRGNSLDYWGQGTLVTVSS VL: DIQMTQSPSSLSASVGDRVTITCKSSQSLLNSGNQKSYLTWYQQKPGKAPKLLIYWASTLESGVPSRFSGSGSGTDYTLTISSLQPEDFATYYCQNAYFFPFTFGQGTKVEIK
Reply: 0.109
